Overview of recorded protein stability index for various variants
B1: VPS39 (parent)
chain: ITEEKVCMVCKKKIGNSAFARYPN

- Variants of: B1
- assay comment: protein stability index of a GFP-peptide fusion (GPS, HEK-293T) (PSI 1-6); higher = more stable;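 further: lentivirally expressed fusions sorted by FACS into six bins by GFP to DsRed ratio, PSI derived from sequencing read proportions per bin multiplied by bin number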
- condition info: c terminus: a fixed tail appended

[[record]]
mutation_id = "K11G"
assay_readout = "protein stability index"
result = 2.58


Identify measured protein stability index associated with "Y22P"
2.65

Identify measured protein stability index associated with "I14D"
3.48

Identify measured protein stability index associated with "K5V"
1.98

Identify measured protein stability index associated with "G15H"
2.02

Identify measured protein stability index associated with "M8D"
2.95
